Catalogue of compounds with associated pest or weed control at 15.625 g/ha
tested on: velvetleaf (Abutilon theophrasti); assay: Test G Post-Emergence Protocol; format: in vivo; settings: Abutilon theophrasti, post-emergence, 312 h, 15.625 g ai/ha, evaluated after 13 days (100=total damage to plant; 0=no damage to plant), read-out: Velvetleaf damage rating

Guide cases for pest or weed control at 15.625 g/ha, answers given:
Item under review: CCCOc1cc(OC(F)(F)F)cc(C2CN(C)C(=O)C2C(=O)Nc2cccc(F)c2F)c1 (stereo not drawn) . Reported pest or weed control at 15.625 g/ha?
0%

Repeat for the following compound: Cc1ccc(NC(=O)[C@H]2C(=O)N(C)C[C@@H]2c2ccc(C(F)(F)F)cc2)c(C)c1 (racemic)
0%

For CN1C[C@H](c2ccc(C(F)(F)F)cc2)[C@@H](C(=O)Nc2ccc(C(F)(F)F)cn2)C1=O (racemic) then?
0%

And for CSc1ccncc1NC(=O)[C@H]1C(=O)N(C)C[C@@H]1c1ccc(C(F)(F)F)cc1 (racemic) ?
0%

Same for COc1cc([C@@H]2CN(C)C(=O)[C@H]2C(=O)Nc2cccc(F)c2F)ccc1Cl (racemic)
10%

Continuing:
Which measured pest or weed control at 15.625 g/ha value corresponds to COc1cc(F)cc(C2CN(C)C(=O)C2C(=O)Nc2cccc(F)c2F)c1 (stereo not drawn) ?
0%

Try this compound next: Cc1c(Cl)cccc1NC(=O)[C@@H]1C(=O)N(C)C[C@H]1c1ccc(C(F)(F)F)cc1 (racemic)
10%

Now give it for C[C@@]1(C(=O)Nc2cccc(F)c2F)C(=O)NC[C@@H]1c1ccc(C(F)(F)F)cc1 (racemic) too.
0%

Same thing, different compound: CN1C[C@@H](c2ccc(C(F)(F)F)cc2)[C@H](C(=O)Nc2cc(Cl)nc(Cl)c2)C1=O (racemic)
0%

---

tested on: pigweed (Amaranthus retroflexus); experiment: Test A preemergence; assay type: in vivo; conditions: Amaranthus retroflexus, pre-emergence, 240 h, 500 g ai/ha, Preemergence, visual injury vs untreated controls after approximately 10 d; read-out: Pigweed plant response rating (0 to 100 scale where 0 is no effect and 100 is complete control)
Class (required): determined from pest or weed control at 500 g/ha; valid ranges are Low = under 20%, Medium = from 20% up to 50%, High = 50% and over

# example entries with known answers
Please indicate the class for Cc1c(F)ccc([C@H]2CN(C)C(=O)[C@@H]2C(=O)Nc2ccc(F)cc2F)c1F based on its pest or weed control at 500 g/ha.
Medium

Same question, O=C1NC[C@H](c2cccc(C(F)(F)F)c2)[C@H]1C(=O)Nc1cccc2c1OC(F)(F)O2 this time
Medium

Quick one: Cc1c(F)ccc([C@H]2CN(C)C(=O)[C@@H]2C(=O)Nc2cccc(F)c2F)c1F
Medium

Likewise for CN1CC[C@H](c2cccc(Cl)c2)[C@@H](C(=O)Nc2ccccc2S(C)(=O)=O)C1=O ?
Low

Same question, CN1CC[C@H](c2cccc(Cl)c2)[C@@H](C(=O)Nc2cccc(Cl)c2F)C1=O this time
Low

Further cases:
Kindly identify the class of CN1C[C@H](c2cc(F)cc(F)c2)[C@@H](C(=O)Nc2ccc(C(F)(F)F)cn2)C1=O .
Low

Please give the result for CC(F)(F)c1cccc([C@H]2CNC(=O)[C@@H]2C(=O)Nc2ccc(F)cc2F)c1 too.
High

---

test system: rice (Oryra sativa); test: Test B flooded paddy test; assay type: in vivo; details: Oryza sativa, Flood, 250 g ai/ha; scale of 0 to 100 where 0 is no effect and 100 is complete control; read-out: Rice plant response rating
Collected pest or weed control at 250 g/ha values appear next to each entry.
Response body: numeric value in %, unit text excluded.

Here's what some known entries look like.
Name the reported pest or weed control at 250 g/ha value associated with the compound O=C1NC[C@H](c2cc(F)c(C(F)(F)F)c(F)c2)[C@H]1C(=O)Nc1cccc(F)c1F
0

Subsequent entry: COc1c(F)ccc([C@H]2CN(C)C(=O)[C@@H]2C(=O)Nc2ccccc2C(F)(F)F)c1Cl
20

Now for the compound whose pest or weed control at 250 g/ha we want.
Which pest or weed control at 250 g/ha value belongs to O=C1NC[C@H](c2cccc(C(F)(F)F)c2)[C@H]1C(=O)Nc1cccc2c1OC(F)(F)O2 ?
0

---

Each entry below carries its recorded Plant response rating, Galium.
tested on: Galium (catchweed bedstraw, Galium aparine); experiment: Test C preemergence; format: in vivo; conditions: 125 g ai/ha, scale 0 to 100, 0 no effect, 100 complete control
API doc: respond with a numeric literal and nothing else, no unit.

Study these solved cases before continuing.
Can you look up Plant response rating, Galium on Galium (catchweed bedstraw, Galium aparine) for Cc1ccc(C2CN(C)C(=O)C2C(=O)Nc2ccccc2C(F)(F)F)cc1 (centres unmarked) ?
90

Then CN1CC(c2ccc(F)c(F)c2)C(C(=O)Nc2ccccc2S(C)(=O)=O)C1=O (centres unmarked) ?
85

Please answer likewise for Cc1ccc(C2CN(C)C(=O)C2C(=O)Nc2ccccc2S(C)(=O)=O)cc1 (centres unmarked)
85

How about O=C1NCC(c2ccc(Br)cc2)C1C(=O)Nc1cccc(F)c1F (centres unmarked) ?
90

Turning now to a further record.
Give Galium (catchweed bedstraw, Galium aparine) Plant response rating, Galium for Cc1ccc(C2CN(C)C(=O)C2C(=O)Nc2ccccc2F)cc1F (centres unmarked)
90

---

Measured pest or weed control at 500 g/ha by item
test system: ragweed (common ragweed, Ambrosia elatior); test: Test A preemergence; assay type: in vivo; conditions: Ambrosia artemisiifolia, pre-emergence, 240 h, 500 g ai/ha, preemergence; 0 to 100 scale, 0 = no effect, 100 = complete control; read-out: Plant response rating, Ragweed
Answer format: numeric, % implied, no suffix.

Can you look up pest or weed control at 500 g/ha on ragweed (common ragweed, Ambrosia elatior) for Cc1ccc([C@H]2CN(C)C(=O)[C@@H]2C(=O)Nc2cccc(F)c2C)cc1C ?
70

Likewise for CCc1cc(CC)cc([C@H]2CN(C)C(=O)[C@@H]2C(=O)Nc2ccccc2C(F)(F)F)c1 ?
0

Then this compound: CN1CC(c2cccc(OC/C=C/Cl)c2)C(C(=O)Nc2cccc(F)c2F)C1=O (stereo not shown)
0

Then CN1C[C@H](c2cc(F)cc(F)c2)[C@@H](C(=O)Nc2c(F)cccc2F)C1=O ?
0

Entry to check: CN1C[C@H](c2ccc(C(F)(F)F)cc2)[C@@H](C(=O)Nc2ccccc2C2CC2)C1=O
0

Also check CCc1ccc([C@H]2CNC(=S)[C@@H]2C(=O)Nc2ccccc2SC)cc1
0

# iterate: CCc1ccc([C@H]2CNC(=S)[C@@H]2C(=O)Nc2cccc(F)c2C)cc1
0

# iterate: CN1C[C@H](c2cc(F)c(F)c(F)c2)[C@@H](C(=O)Nc2ccc(F)c(F)c2F)C1=O
90

Follow-up entry: O=C1NC[C@H](c2ccc(C(F)(F)F)cc2)[C@H]1C(=O)Nc1ccccc1C1CC1
0

Next:
Please state recorded pest or weed control at 500 g/ha (tested on ragweed (common ragweed, Ambrosia elatior)) of O=C1NC[C@H](c2ccc3c(c2)OCO3)[C@H]1C(=O)Nc1ccccc1F
0

---

test system: ryegrass, Italian (Italian ryegrass, Lolium multiflorum); assay: Test A postemergence; assay type: in vivo; conditions: Lolium multiflorum, post-emergence, 240 h, Postemergence, 500 g ai/ha; visual injury, 0 to 100 scale (0 no effect, 100 complete control), approx. 10 d; read-out: Plant response rating, Ryegrass, Italian
Reported pest or weed control at 500 g/ha values are given for each entry in this list.
Number in %, nothing else.

// worked examples, pest or weed control at 500 g/ha included
Look up pest or weed control at 500 g/ha: CN1C[C@H](c2ccc(C(F)(F)F)cc2)[C@@H](C(=O)Nc2cccc(C#N)c2F)C1=O
60

Item: Cc1cc(F)cc([C@H]2CNC(=O)[C@@H]2C(=O)Nc2cccc(F)c2F)c1
20

Another: CSc1ccccc1NC(=O)[C@H]1C(=O)N(C)C[C@@H]1c1ccc(F)c(C)c1
50

Now consider the entry below.
Consider the compound shown here: CN1C[C@H](c2ccc(C(F)(F)F)cc2)[C@@H](C(=O)Nc2ccccc2)C1=O What is its recorded pest or weed control at 500 g/ha?
60

---

test system: ragweed (common ragweed, Ambrosia elatior); assay: Test A postemergence; assay type: in vivo; details: Ambrosia artemisiifolia, post-emergence, 240 h, 500 g ai/ha, postemergence; 0 to 100 scale, 0 is no effect, 100 is complete control; read-out: Ragweed plant response rating
MEASURED PARAMETER: pest or weed control at 500 g/ha (%)
Write it as a number; the unit % goes unstated.

Sample answers from the record:
# value lookup — system ragweed (common ragweed, Ambrosia elatior), readout pest or weed control at 500 g/ha, item CN1CC[C@H](c2ccc(C(F)(F)F)cc2)[C@@H](C(=O)Nc2ccccc2C(F)(F)F)C1=O
0

How about Cc1ccc([C@H]2CN(C)C(=O)[C@]2(O)C(=O)Nc2cccc(F)c2F)cc1 (racemic) ?
0

Record: CN1C[C@H](c2ccc(F)c(F)c2)[C@@H](C(=S)Nc2ccccc2F)C1=O (racemic)
0

// below: pest or weed control at 500 g/ha requested for another compound
Checklist item: pest or weed control at 500 g/ha tested on ragweed (common ragweed, Ambrosia elatior), entry N#Cc1ccc([C@H]2CNC(=O)[C@@H]2C(=O)Nc2cccc(F)c2F)cc1 , value?
0

The reported measurements were obtained from patent US12077503B2.
